- Tested on: U87 cells
- protocol notes: Evaluation of anticancer drug resistance: cell viability with doxorubicin, U87 cells (WT cells)
- Assay type: cell-based
- conditions: Homo sapiens, U-87 MG; U87 cells (WT cells) cultured in general medium; 72 h culture; living cell count; non-linear regression
property label: pIC50
Scale note: pIC50 = -log10(concentration in M).

Checklist item: pIC50 tested on U87 cells, entry COc1cccc2c1C(=O)c1c(O)c3c(c(O)c1C2=O)C[C@@](O)(C(=O)CO)C[C@@H]3O[C@H]1C[C@H](N)[C@H](O)[C@H](C)O1 , value?
7.30

The measurements presented in this section are drawn from patent US20180290138A1.
